Listed below: DP values for each entry.
TGT: DNA polymerase catalytic subunit (Herpes simplex virus (type 1 / strain 17)) (UniProt P04293)
Sequence (whole entry): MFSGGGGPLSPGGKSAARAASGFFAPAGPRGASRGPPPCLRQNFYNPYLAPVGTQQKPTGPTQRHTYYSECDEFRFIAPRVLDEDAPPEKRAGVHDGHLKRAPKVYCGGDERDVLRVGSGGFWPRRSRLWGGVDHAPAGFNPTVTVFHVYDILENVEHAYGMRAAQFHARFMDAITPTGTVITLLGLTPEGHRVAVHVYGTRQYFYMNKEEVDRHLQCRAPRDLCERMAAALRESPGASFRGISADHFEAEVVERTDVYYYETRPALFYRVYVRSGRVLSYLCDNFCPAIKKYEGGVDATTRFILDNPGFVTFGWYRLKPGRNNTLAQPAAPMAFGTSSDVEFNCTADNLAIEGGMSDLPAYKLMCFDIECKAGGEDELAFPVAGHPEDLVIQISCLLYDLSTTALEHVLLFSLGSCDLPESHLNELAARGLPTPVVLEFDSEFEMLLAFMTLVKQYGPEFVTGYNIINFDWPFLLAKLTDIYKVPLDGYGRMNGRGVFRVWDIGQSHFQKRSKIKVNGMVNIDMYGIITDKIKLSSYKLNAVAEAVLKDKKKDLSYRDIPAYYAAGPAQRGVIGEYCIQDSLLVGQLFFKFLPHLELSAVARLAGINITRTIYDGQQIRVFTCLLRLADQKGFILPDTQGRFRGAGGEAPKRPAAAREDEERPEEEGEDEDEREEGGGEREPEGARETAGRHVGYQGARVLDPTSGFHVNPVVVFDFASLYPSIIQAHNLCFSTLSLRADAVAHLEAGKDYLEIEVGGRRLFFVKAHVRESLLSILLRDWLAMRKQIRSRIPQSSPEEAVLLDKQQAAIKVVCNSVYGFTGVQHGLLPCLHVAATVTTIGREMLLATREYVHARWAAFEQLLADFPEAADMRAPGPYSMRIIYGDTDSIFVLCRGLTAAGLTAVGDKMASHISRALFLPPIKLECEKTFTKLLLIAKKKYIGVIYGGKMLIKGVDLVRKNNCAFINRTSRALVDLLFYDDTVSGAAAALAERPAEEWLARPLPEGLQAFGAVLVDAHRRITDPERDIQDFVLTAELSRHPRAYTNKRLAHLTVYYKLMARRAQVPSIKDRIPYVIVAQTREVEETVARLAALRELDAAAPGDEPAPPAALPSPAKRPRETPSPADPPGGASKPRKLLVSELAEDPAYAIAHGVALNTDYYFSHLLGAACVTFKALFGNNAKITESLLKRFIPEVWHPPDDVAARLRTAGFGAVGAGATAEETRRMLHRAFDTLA
ASSAY SUMMARY: Percentage of diphosphates (DP) in the second step of staggered assay mixture from step 1 was incubated with GMP kinase and crude extract of HSV-1 infected HeLa cells over night; also: test concentration or dose not given here
Format: functional, cell-based
The reply should contain only the number, in %.

> print(dat)
                            smiles.str  observed
1  Nc1nc(O)c2nnn(C[C@H]3C[C@H]3CO)c2n1        41

Request: For the compound Nc1nc2c(ncn2CCCCO)c(=O)[nH]1 , what DP is on record?
Response: 10

Request: I'd like to know its DP. The compound in question is Nc1nc(O)c2ncn(C/C=C\CO)c2n1
Response: 16

Request: Which DP is reported for this compound? Nc1nc(O)c2ccn(C[C@H]3C[C@H]3CO)c2n1
Response: 0

Request: Sample Nc1nc(O)c2ncn(C[C@H]3CC3(CO)CO)c2n1 — what was its DP?
Response: 0

Request: I am curious: what DP value has been reported for Nc1nc(O)c2ncn(C[C@H]3C[C@@H]3CO)c2n1 ?
Response: 48

Request: # DP lookup, item Nc1nc(O)c2ncn(CCC(CO)CO)c2n1
Response: 13
